Assay: Plasma pharmacokinetic comparison of zaleplon free base and HCl salt after single oral doses
Format: in vivo
Details: male, beagle, dog, plasma, po, 2.5 mg HCl Salt/kg, male beagle dogs; single oral dose 2.5 mg HCl Salt/kg; dog TDR2
parameter: AUC(0-t) (ng·h/mL)
Give bare numbers, in ng·h/mL.

Need AUC(0-t) of CCN(C(C)=O)c1cccc(-c2ccnc3c(C#N)cnn23)c1.Cl [zaleplon HCl, Zaleplon Hydrochloride] , thanks. 2650

---

Test: Pharmacokinetics of indiplon after oral administration of free base or HBr co-crystal suspension
Assay type: in vivo, male beagle dogs
Details: male, beagle, dog, plasma, po, 5 mg/kg, male dogs; single oral dose 5 mg free base/kg; 0.5% methylcellulose suspension; Mean, N = 5; read-out: Tmax
parameter: Tmax (min)
Give bare numbers, in min.

Need Tmax of CC(=O)N(C)c1cccc(-c2ccnc3c(C(=O)c4cccs4)cnn23)c1 [Indiplon free base, reference compound] , thanks. 36

---

Test: Plasma pharmacokinetic comparison of zaleplon free base and HCl salt after single oral doses
Assay type: in vivo
Details: male, beagle, dog, plasma, po, 2.5 mg HCl Salt/kg, male beagle dogs; single oral dose 2.5 mg HCl Salt/kg; dog CLT-2
parameter: Tmax (min)
Answers are plain numbers, in min.

Need Tmax of CCN(C(C)=O)c1cccc(-c2ccnc3c(C#N)cnn23)c1.Cl [zaleplon HCl, Zaleplon Hydrochloride] , thanks. 15

---

Assay: Pharmacokinetics of different salt forms of ocinaplon after a single oral dose
Assay type: in vivo
Conditions: male, beagle, dog, plasma, po, 50 mg/kg, male beagle dogs; single oral dose 50 mg/kg; 0.5% MC; mean (CV %)
parameter: AUC(0-t)

Need AUC(0-t) of O=C(c1ccccn1)c1cnn2c(-c3ccncc3)ccnc12 [Ocinaplon Free base, reference compound] , thanks. 62500 ng·h/mL

---

Assay: Plasma pharmacokinetic comparison of zaleplon free base and HCl salt after single oral doses
Type: in vivo
Details: male, beagle, dog, plasma, po, 5 mg/kg, male beagle dogs; single oral dose 5.0 mg Free Base/kg; dog H1B108
parameter: AUC(0-inf) (ng·h/mL)
Give bare numbers, in ng·h/mL.

Need AUC(0-inf) of CCN(C(C)=O)c1cccc(-c2ccnc3c(C#N)cnn23)c1 [zaleplon free base, reference compound] , thanks. 3760

---

Experiment: Pharmacokinetics of indiplon after oral administration of free base or HBr co-crystal suspension
Type: in vivo, male beagle dogs
Conditions: male, beagle, dog, plasma, po, 5 mg/kg, male dogs; single oral dose 5 mg free base/kg; 0.5% methylcellulose suspension; dog CVRCVX; read-out: AUC0-t
Protocol: The purpose of this study was to determine the pharmacokinetics of indiplon following oral administration of the free base and the HBr co-crystal in a suspension to male beagle dogs. […] Blood (approximately 2 mL) was collected from a jugular vein via syringe and needle and transferred into tubes containing K2EDTA anticoagulant predose and at 0.5, 1, 2, 3, 4, 6, 8, 12, and 24 hours postdose. […] Samples were analyzed using an LC/MS/MS method. […]
parameter: AUC(0-t) (ng·h/mL)
One number for each entry, in ng·h/mL.

Need AUC(0-t) of CC(=O)N(C)c1cccc(-c2ccnc3c(C(=O)c4cccs4)cnn23)c1 [Indiplon free base, reference compound] , thanks. 279

---

Experiment: Plasma pharmacokinetic comparison of zaleplon free base and HCl salt after single oral doses
Type: in vivo
Conditions: male, beagle, dog, plasma, po, 5 mg/kg, male beagle dogs; single oral dose 5.0 mg Free Base/kg; dog CLT-2
parameter: AUC(0-inf) (ng·h/mL)
One number for each entry, in ng·h/mL.

Need AUC(0-inf) of CCN(C(C)=O)c1cccc(-c2ccnc3c(C#N)cnn23)c1 [zaleplon free base, reference compound] , thanks. 6860

---

Experiment: Plasma pharmacokinetic comparison of zaleplon free base and HCl salt after single oral doses
Format: in vivo
Conditions: male, beagle, dog, plasma, po, 2.5 mg HCl Salt/kg, male beagle dogs; single oral dose 2.5 mg HCl Salt/kg; dog TDR2
parameter: Cmax (ng/mL)
Numbers only, in ng/mL.

Need Cmax of CCN(C(C)=O)c1cccc(-c2ccnc3c(C#N)cnn23)c1.Cl [zaleplon HCl, Zaleplon Hydrochloride] , thanks. 820

---

Assay: Plasma pharmacokinetic comparison of zaleplon free base and HCl salt after single oral doses
Assay type: in vivo
Conditions: male, beagle, dog, plasma, po, 2.5 mg HCl Salt/kg, male beagle dogs; single oral dose 2.5 mg HCl Salt/kg; dog TDR2
parameter: AUC(0-inf) (ng·h/mL)
Give bare numbers, in ng·h/mL.

Need AUC(0-inf) of CCN(C(C)=O)c1cccc(-c2ccnc3c(C#N)cnn23)c1.Cl [zaleplon HCl, Zaleplon Hydrochloride] , thanks. 2650

---

Assay: Plasma pharmacokinetic comparison of zaleplon free base and HCl salt after single oral doses
Type: in vivo
Settings: male, beagle, dog, plasma, po, 5 mg/kg, male beagle dogs; single oral dose 5.0 mg Free Base/kg; dog TKR-2
parameter: Cmax (ng/mL)
One number for each entry, in ng/mL.

Need Cmax of CCN(C(C)=O)c1cccc(-c2ccnc3c(C#N)cnn23)c1 [zaleplon free base, reference compound] , thanks. 2630

---

Assay: Plasma pharmacokinetic comparison of zaleplon free base and HCl salt after single oral doses
Assay type: in vivo
Conditions: male, beagle, dog, plasma, po, 2.5 mg HCl Salt/kg, male beagle dogs; single oral dose 2.5 mg HCl Salt/kg; Mean of 5 dogs
parameter: AUC(0-t)
Please report the result as a number followed by the unit.

Need AUC(0-t) of CCN(C(C)=O)c1cccc(-c2ccnc3c(C#N)cnn23)c1.Cl [zaleplon HCl, Zaleplon Hydrochloride] , thanks. 2310 ng·h/mL

---

Test: Plasma pharmacokinetic comparison of zaleplon free base and HCl salt after single oral doses
Type: in vivo
Settings: male, beagle, dog, plasma, po, 5 mg/kg, male beagle dogs; single oral dose 5.0 mg Free Base/kg; dog TKR-2
parameter: AUC(0-inf) (ng·h/mL)
One number for each entry, in ng·h/mL.

Need AUC(0-inf) of CCN(C(C)=O)c1cccc(-c2ccnc3c(C#N)cnn23)c1 [zaleplon free base, reference compound] , thanks. 14500

---

Test: Plasma pharmacokinetic comparison of zaleplon free base and HCl salt after single oral doses
Type: in vivo
Details: male, beagle, dog, plasma, po, 5 mg/kg, male beagle dogs; single oral dose 5.0 mg Free Base/kg; dog H0M004
parameter: AUC(0-t) (ng·h/mL)
Answers are plain numbers, in ng·h/mL.

Need AUC(0-t) of CCN(C(C)=O)c1cccc(-c2ccnc3c(C#N)cnn23)c1 [zaleplon free base, reference compound] , thanks. 6930

---

Experiment: Plasma pharmacokinetic comparison of zaleplon free base and HCl salt after single oral doses
Assay type: in vivo
Details: male, beagle, dog, plasma, po, 2.5 mg HCl Salt/kg, male beagle dogs; single oral dose 2.5 mg HCl Salt/kg; dog H0M004
parameter: Cmax (ng/mL)
One number for each entry, in ng/mL.

Need Cmax of CCN(C(C)=O)c1cccc(-c2ccnc3c(C#N)cnn23)c1.Cl [zaleplon HCl, Zaleplon Hydrochloride] , thanks. 642

---

Experiment: Plasma pharmacokinetic comparison of zaleplon free base and HCl salt after single oral doses
Assay type: in vivo
Settings: male, beagle, dog, plasma, po, 5 mg/kg, male beagle dogs; single oral dose 5.0 mg Free Base/kg; Mean of 5 dogs
parameter: AUC(0-t) (ng·h/mL)
Numbers only, in ng·h/mL.

Need AUC(0-t) of CCN(C(C)=O)c1cccc(-c2ccnc3c(C#N)cnn23)c1 [zaleplon free base, reference compound] , thanks. 6700

---

Assay: Plasma pharmacokinetic comparison of zaleplon free base and HCl salt after single oral doses
Assay type: in vivo
Conditions: male, beagle, dog, plasma, po, 5 mg/kg, male beagle dogs; single oral dose 5.0 mg Free Base/kg; dog H1B108
parameter: Tmax (h)
Give bare numbers, in h.

Need Tmax of CCN(C(C)=O)c1cccc(-c2ccnc3c(C#N)cnn23)c1 [zaleplon free base, reference compound] , thanks. 2

---

Assay: Plasma pharmacokinetic comparison of zaleplon free base and HCl salt after single oral doses
Assay type: in vivo
Conditions: male, beagle, dog, plasma, po, 5 mg/kg, male beagle dogs; single oral dose 5.0 mg Free Base/kg; dog TKR-2
parameter: Tmax (h)
One number for each entry, in h.

Need Tmax of CCN(C(C)=O)c1cccc(-c2ccnc3c(C#N)cnn23)c1 [zaleplon free base, reference compound] , thanks. 1

---

Test: Pharmacokinetics of different salt forms of ocinaplon after a single oral dose
Type: in vivo
Conditions: male, beagle, dog, plasma, po, 30 mg/kg, male beagle dogs; single oral dose 30 mg Base/kg; 0.5% methylcellulose suspension; mean (CV %), N = 5
Structures can show the parent of a compound that is named as a salt.
parameter: Cmax
Please report the result as a number followed by the unit.

Look up Cmax for the entries below, preserving their order.
1. Cl.Cl.O=C(c1ccccn1)c1cnn2c(-c3ccncc3)ccnc12 [Ocinaplon di HCl salt]
2. O=C(c1ccccn1)c1cnn2c(-c3ccncc3)ccnc12 [Ocinaplon disulfate salt]
3. Br.Br.O=C(c1ccccn1)c1cnn2c(-c3ccncc3)ccnc12

["15000 ng/mL", "14800 ng/mL", "13600 ng/mL"]

---

Assay: Pharmacokinetics of indiplon after oral administration of free base or HBr co-crystal suspension
Type: in vivo, male beagle dogs
Details: male, beagle, dog, plasma, po, 5 mg/kg, male dogs; single oral dose 5 mg free base/kg; 0.5% methylcellulose suspension; dog CVSCCL; read-out: Cmax
parameter: Cmax (ng/mL)
One number for each entry, in ng/mL.

Need Cmax of CC(=O)N(C)c1cccc(-c2ccnc3c(C(=O)c4cccs4)cnn23)c1 [Indiplon free base, reference compound] , thanks. 240
